- assay.summary: qHTS assay to identify small molecule agonists of H2AX - cell viability counter screen (AID 1224847);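 also: wild-type CHO-K1 cells; top concentration of the series differs between compounds; nearly all actives have a fitted effect of over 30% in size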
- details: CHO-K1 viability, CellTiter-Glo luminescence, 3 h; series mostly up to 154 µM
Results filed as inconclusive are left out. Activity calls are given as the source filed them. Calls follow the shape of the full dose curve.
metric.name: activity change, negative = cytotoxicity

N#CC1(N)CCCCC1 :: inactive
CC(=O)Oc1ccc(C(C)=O)cc1 :: inactive
CCc1ncc(C)[nH]1 :: inactive
c1coc(Cn2cccc2)c1 :: inactive

Count: 6. Required value per item: activity change, negative = cytotoxicity.
1. O=C1CCCc2c(O)cccc21
2. O=C(O)Cc1ccccc1Oc1ccc(Cl)cc1Cl
3. CC(CC(=O)Cl)CC(C)(C)C (configuration not stated)
4. CCOC(=O)CC
5. O=C1c2ccccc2C(=O)N1CO
6. Cc1ccc(NC(N)=O)cc1

Output:
inactive
inactive
inactive
inactive
inactive
inactive

Parameters: items (list). Returns: activity change, negative = cytotoxicity for each item.
1. CCOC(=O)CN1CCCC1=O
2. CC(C)(C)OC=O
3. COc1cc(S(N)(=O)=O)cc(C(=O)O)c1OC
4. CC(O)C(CO)C(C)O (configuration not stated)
5. O=C1Nc2ccccc2C1=O
6. CNC(=O)c1c(I)c(NC(C)=O)c(I)c(C(=O)O)c1I
7. CCCCc1ccc(Cl)cc1

Output:
inactive
inactive
inactive
inactive
inactive
inactive
inactive
